tgt: AroAE.coli (Escherichia coli, UniProt P0A6D3)
Sequence (P0A6D3 1-427): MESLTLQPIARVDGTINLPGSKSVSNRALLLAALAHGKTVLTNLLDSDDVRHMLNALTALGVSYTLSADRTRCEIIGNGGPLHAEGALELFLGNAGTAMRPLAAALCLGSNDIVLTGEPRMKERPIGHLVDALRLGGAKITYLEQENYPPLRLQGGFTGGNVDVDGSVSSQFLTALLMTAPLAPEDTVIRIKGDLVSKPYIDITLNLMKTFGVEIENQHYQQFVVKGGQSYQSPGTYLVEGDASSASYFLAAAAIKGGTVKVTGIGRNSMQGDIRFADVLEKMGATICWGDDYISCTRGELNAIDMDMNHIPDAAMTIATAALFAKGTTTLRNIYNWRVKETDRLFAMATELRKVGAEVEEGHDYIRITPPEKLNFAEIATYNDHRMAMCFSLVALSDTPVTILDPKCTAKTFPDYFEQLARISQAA
pKi: −log10 of the molar value.
measurement.type: pKi

compound | observed
O=C(O)CNCP(=O)(O)O [glyphosate] | 5.85

* * *

tgt: AroAE.coli (Escherichia coli, UniProt P0A6D3, G96A)
protocol.description: biochemical

molecule | units.label | Ki
O=C(O)CNCP(=O)(O)O [glyphosate] | µM | 219

* * *

tgt: AroAE.coli (Escherichia coli)
pIC50: −log10 of the molar value.

compound | tgt | pIC50
O=C(O)CNCP(=O)(O)O [glyphosate] | AroAE.coli (Escherichia coli) | 4.30
